measure: melting point

• CC(C)Oc1ccc(C(=O)n2nc(Nc3ccc(O)cc3)nc2N)cc1 = 229 to 234 °C
• CC(C)(C)OC(=O)[C@@H]1CC[C@H](CC(=O)N[C@@H](Cc2ccc(OCc3c(Cl)cccc3Cl)cc2)C(=O)O)N1Cc1ccccc1 = 80 to 83 °C
• CC(C)(C)OC(=O)Nc1ccc(C#Cc2ccccc2)cc1NC(=O)CC(=O)c1cccc([N+](=O)[O-])c1 = 177 to 179 °C
• COC(=O)C(Cl)=Cc1cccc([N+](=O)[O-])c1Cl = 110 to 112 °C
• OCC1(CO)CC(Cc2ccc(F)cc2)=NO1 = 93 to 97 °C
• O=c1[nH]c(=O)n(C2CC(F)C(COC(c3ccccc3)(c3ccccc3)c3ccccc3)O2)cc1C(I)=CI (stereo not given) = 58 °C
• CC(=O)OCCc1ccc(-c2ccc(=O)[nH]n2)cc1 = 186 °C
• CCCCn1cnc2c(OCc3cccs3)nc(Nc3ccc(OCC)nc3)nc21 = 112 to 114 °C
• FC(F)(F)c1ccc(Cn2cnc3c(-c4ccco4)ncnc32)cc1 = 159 to 161 °C
• OC1c2ccc(OCc3ccccc3)cc2OCC1N1CCC(O)(c2ccc(F)cc2)CC1 (stereo not given) = 194 to 195 °C
• C=C(C)C(=O)N1c2ccccc2Sc2ccc(OC)cc21 = 91 to 92 °C
• O=C(O)c1cn(CCc2cccc(Cl)c2)c2cc(C3CC3)nn2c1=O = 230 to 235 °C
• CCc1nnc(-c2ccc(OC)cc2)n1-c1cccc(C(F)(F)F)c1 = 140 °C
• COC(=O)C1=NN(c2ccc(F)cc2)C(C)(C(=O)OC)C1 (stereo not given) = 114 to 118 °C
• CC(=O)NCCNC(=O)c1[nH]c(C)c(-c2nc3ccc(C(=O)c4ccccc4)cc3[nH]2)c1C = 272 to 273 °C
• CSc1nc(SC)nc(-n2c(C)nc3ccccc32)n1 = 176 to 179 °C
• O=C1c2ccc(-c3ccccc3)cc2CC1Br (stereo not given) = 99 to 100 °C
• CC1(C)CC2(CC(C)(C)N1c1nc(N(CCO)CCO)nc(N3CCOCC3)n1)OCCO2 = 135 to 140 °C
• Cn1c(=O)sc2cc(C(=O)CSCCC(=O)O)c(Cl)cc21 = 120 to 121 °C
• NC(=O)c1cccc2c3c(cc([N+](=O)[O-])c12)N(C(=O)C(F)(F)F)CC3CCl (stereo not given) = 272 to 277 °C

---

Listing: melting point of selected compounds
measure: melting point

- CC[C@H](C)C(OCc1ccccc1F)[C@H]1[C@H]([N+](=O)[O-])[C@H](c2ccsc2)N[C@@H]1C(=O)NCCC(=O)O (stereo not given in full): 113 to 114 °C
- COc1ccc2c(c1)C(=O)N(c1ccc3cccnc3c1)C2: 220 to 223 °C
- O=c1ccc(Oc2ccc([N+](=O)[O-])cc2)c[nH]1: 214 to 217 °C
- CCC(=O)OCOC(=O)Nc1ccc(Cl)cc1: 90 to 91 °C
- COC(=O)c1ccc(Cl)cc1NC(=O)CSc1ccccc1C: 88 to 89 °C
- N#Cc1cc(-c2ccncc2)c[nH]c1=O: > 300 °C
- Cc1oc(-c2ccco2)nc1COc1ccc(COc2nn(Cc3ccccc3)cc2C=O)cc1: 118 to 119 °C
- Cc1ccccc1-c1c2c(cc3ccc4c(c13)OCO4)C(=O)NC2: 252 to 255 °C
- N#Cc1ccc(Oc2cc(F)cc(F)c2)c([N+](=O)[O-])c1: 132 to 136 °C
- CNC(=O)Cn1c(-c2ccc([N+](=O)[O-])cc2)nc2cccnc21: > 260 °C

---

measure: melting point

- Cc1c(C(=O)c2ccc(F)cc2)cccc1[N+](=O)[O-]: 64 °C
- CN(C)CCCOc1ccc(N(C(=O)c2ccc(F)cc2)c2ccccc2)cc1: 82.5 to 83.5 °C
- N#Cc1c(-c2cccc(N)c2)cc(-c2ccccc2O)nc1NC(=O)c1ccccc1: 259 to 261 °C
- N#Cc1cnc2c(sc3c([N+](=O)[O-])cccc32)c1Cl: 258 to 260 °C
- CCNCC1CCN(c2c(F)cc3c(=O)c(C(=O)O)cn(C4CCCCC4)c3c2F)C1 (stereo not given): 194 to 196 °C

---

measure: melting point

* Cc1c(C(=O)O)cccc1-c1cccs1 | 91.5 to 93 °C
* O=C(CCCCCCOc1ccccc1)c1nnc(COCc2ccccc2)o1 | 61 to 63 °C
* CC(C)(C)c1ccc(C(C)(C)C(=O)Oc2ccc(SCCCC(=O)O)cc2)cc1 | 86 to 87 °C
* O=C1CC2(CCNCC2)c2cc(Br)ccc2N1 | 218 °C
* O=C(O)CCCCC1NC(=O)OC1=O (stereo unspecified) | 102 to 104 °C
* CC(=O)Nc1nc2ccc(S(=O)(=O)n3c(CCCC(=O)O)cc4nc(Cl)ccc43)cc2s1 | 270 °C
* CCOC(=O)c1cc2c(C=O)ccc(OCc3ccccc3)c2[nH]1 | 131 to 132 °C
* O=[N+]([O-])c1ccc2c(c1)C(c1ccccc1)=NCC(OP(=O)(N1CCOCC1)N1CCOCC1)=N2 | 208 to 209 °C
* COC(=O)C1(c2ccccc2)CCN(CCNC(=O)N2C(=O)COCC2c2ccc(F)c(F)c2)CC1 (stereo unspecified) | 113 to 117 °C
* c1ccc(COc2cccc(Nc3nnc(Cc4ccncc4)c4ccccc34)c2)cc1 | 142 to 143 °C
* CCCNC(=O)C1(CCCCN2CCC(NC(=O)OC(C)(C)C)CC2)c2ccccc2-c2ccccc21 | 118 to 120 °C
* CC(C)=CCC/C(C)=C/COc1c(I)c(C)c(I)c(C)c1I | 65 to 66 °C
* Cc1ccc(COc2ncc(F)c(N)n2)cc1 | 111 to 112 °C
* NS(=O)(=O)c1cc(Br)cc2c1OS(=O)(=O)C=C2 | 224 to 228 °C
* O=C1NCCc2c(NCc3ccccc3)cccc21 | 142 to 144 °C
* N#Cc1cccc(-c2nc(-c3ccc(C(=O)O)cc3)cc3cccnc23)c1 | > 300 °C
* O=C(O)[C@@H]1CCC(=O)N1Cc1ccccc1 | 91 to 93 °C
* N#CCCOC(=O)C=Cc1ccccc1 | 62 to 65 °C
* Cn1cc(CC(NC(=O)CCCC(=O)O)C(=O)NCCCCNC(=N)N)c2ccccc21 (stereo unspecified) | 291 °C
* c1ccc(CN(c2ccccc2)c2ccccc2)cc1 | 86 °C
* CC(C)(C)OC(=O)N1CCC[C@@H](Nc2nccc(-c3c(-c4cccc(C#N)c4)nc4sccn34)n2)C1 | 108 to 110 °C

---

We begin with a simple list: items and their reported melting point.
measure: melting point

* Cc1cc2c(=O)c(Cc3cccnc3)cn3c4ccc(Br)cc4c(c1)c23 | 202 to 204 °C
* Cc1ccccc1C(=O)Nc1ccc(C(=O)N2CCS(=O)(=O)c3ccccc32)cc1 | 219 to 220 °C
* CC(=O)C(=Cc1ccc(C(F)(F)F)cc1)C(C)=O | 46 to 48 °C
* Cc1ccc(Cc2ccc(-c3cnn4c(O)ncnc34)cc2)cc1 | 285 to 292 °C
* CC(=O)C1CCC2C3CCC4CC=CCC4(C)C3C(N)CC12C (stereo unspecified) | 127 to 129 °C
* O=c1c2ccc([N+](=O)[O-])cc2nc2n1CCC2=Cc1ccccc1 | 196 to 197 °C
* CC(C)(C)n1cc(C(=O)O)c(=O)c2cc(F)c(N3CCNCC3)nc21 | > 270 °C
* Cn1c(=O)n(CC2CO2)n(CC2CO2)c1=O (stereo unspecified) | 115 to 116 °C
* Cc1sc(-c2ccccc2)nc1CCOc1ccc([N+](=O)[O-])cn1 | 131 to 132 °C
* Cn1c(C(F)(F)F)cc(=O)n(-c2cc(OC(=O)Oc3ccccc3)c(Cl)cc2F)c1=O | 112 to 115 °C
* CCOC(C)c1cc(C(=O)OC)c(N)cc1C(F)(F)F (stereo unspecified) | 100 to 103 °C
* CC(=O)OCCOc1ccc(C=Cc2ccc(S(C)(=O)=O)cc2)cc1 | 175 to 177 °C
* Cc1oc(-c2ccccc2)nc1/C=C/c1ccc(Br)cc1 | 138 to 139 °C
* N#Cc1ccc2c(c1)OC(=O)C(Br)C2Br (stereo unspecified) | 220 to 230 °C
* COc1ccc(CNc2ncnc3c2ncn3C2OC(Cn3cc(C)nn3)C(O)C2O)cc1 (stereo unspecified) | 183 °C
* CCCn1nc(C)c2c1C1=NC(C)CN1C(C)=N2 (stereo unspecified) | 85 to 90 °C
* Cc1ccc(NC(=O)N(C)Cc2cccc3c2C(=O)N(C2CCC(=O)NC2=O)C3=O)cc1Cl (stereo unspecified) | 193 to 195 °C
* N/C(=C1/Sc2ccccc2C1=O)c1ccccc1Br | 143 to 144 °C
* O=C1Nc2ccccc2C1c1nc(Cl)nc2nn(C3CCCC3)cc12 (stereo unspecified) | 270 to 273 °C
* CCCCC(Cc1ccc(OCCN(CC)CC)cc1)(C(=O)NO)S(=O)(=O)c1ccc(OC)cc1 (stereo unspecified) | 67 °C
* COc1cc2c(cc1OC)C1Cc3cc4c(cc3CC(=O)N1CC2)OCO4 (stereo unspecified) | 207 to 209 °C
